Reference source: patent US8178579B2

# assayed.target: UniProt Q13547
# Sequence (Q13547 whole entry): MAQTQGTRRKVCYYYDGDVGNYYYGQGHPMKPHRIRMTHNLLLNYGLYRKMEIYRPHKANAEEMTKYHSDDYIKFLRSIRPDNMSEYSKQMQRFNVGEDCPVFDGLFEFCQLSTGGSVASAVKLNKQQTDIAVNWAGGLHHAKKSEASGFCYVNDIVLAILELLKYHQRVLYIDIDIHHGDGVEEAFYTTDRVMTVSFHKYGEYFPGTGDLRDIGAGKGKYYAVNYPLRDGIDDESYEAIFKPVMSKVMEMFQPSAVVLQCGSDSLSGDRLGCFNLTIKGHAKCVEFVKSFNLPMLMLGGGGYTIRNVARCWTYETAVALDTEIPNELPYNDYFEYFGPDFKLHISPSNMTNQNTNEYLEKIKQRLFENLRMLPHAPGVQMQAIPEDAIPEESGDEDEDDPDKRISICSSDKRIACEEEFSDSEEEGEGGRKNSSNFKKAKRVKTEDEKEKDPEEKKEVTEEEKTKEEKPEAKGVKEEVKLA
pIC50: −log10 of the molar value.
parameter: pIC50

stdin: Would you please give the reported pIC50 of C[C@H]1[C@@H](CN2CCC3(CC2)OCCO3)OC(c2cccc(NS(=O)(=O)c3ccccc3)c2)O[C@H]1c1ccc(CO)cc1 (mixture of isomers) with UniProt Q13547?
stdout: ~6.00

----------
# assayed.target: Ure2p (Saccharomyces cerevisiae, UniProt P23202)
# Construct: endogenous in cells
# Sequence (P23202 whole entry): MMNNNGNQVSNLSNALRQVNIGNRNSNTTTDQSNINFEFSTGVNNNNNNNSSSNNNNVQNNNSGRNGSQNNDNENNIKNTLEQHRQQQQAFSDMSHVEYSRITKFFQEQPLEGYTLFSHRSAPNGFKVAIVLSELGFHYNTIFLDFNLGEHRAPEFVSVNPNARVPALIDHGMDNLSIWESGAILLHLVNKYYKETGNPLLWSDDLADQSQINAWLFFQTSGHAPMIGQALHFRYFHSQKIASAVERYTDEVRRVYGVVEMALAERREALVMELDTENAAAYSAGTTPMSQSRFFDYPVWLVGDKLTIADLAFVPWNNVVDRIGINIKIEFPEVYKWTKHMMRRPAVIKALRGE
# assay.protocol: surface plasmon resonance (BIAcore 3000) binding to immobilized Ure2p
# measurement.parameters: PBS/Tween-20 with 10% DMF, read-out: equilibrium dissociation constant for binding to Ure2p
Attribute: pKd
Please keep in mind that pKd is minus log10 of the molar concentration; only the number is needed.

NCc1ccc([C@@H]2O[C@H](CSc3nc(-c4ccccc4)c(-c4ccccc4)o3)C[C@H](c3ccc(CO)cc3)O2)cc1 (relative stereo)
5.12

stdin: Recall and state the measured pKd for NCc1ccc([C@@H]2O[C@H](CSc3nc(-c4ccccc4)c(-c4ccccc4)o3)[C@@H](c3ccccc3)[C@H](c3ccc(CO)cc3)O2)cc1 (relative stereo) .
stdout: 4.74
